Form field: Height (one value per entry).
- Tested on: rice
- assay_protocol: Low temperature assay on rice seedlings
- Format: in vivo
- condition_label: 0.01 mg/l, 2 °C, 3 days
Return type: number; implicit unit cm.

Query block: So what does the record say about Height for CC(C)[C@H](C)[C@@H](O)[C@H](O)[C@@H](C)[C@H]1CCC2C3CC(=O)C4C[C@H](O)CC[C@]4(C)C3CC[C@@]21C (stereo partly drawn) [BR4] ?
Result block: 7

Query block: Could you share which Height value was measured for CC(C)(O)CC[C@@H](O)[C@](C)(O)[C@H]1CC[C@@]2(O)[C@@H]3CC(=O)[C@@H]4C[C@@H](O)[C@@H](O)C[C@]4(C)[C@H]3CC[C@]12C [BR6] ?
Result block: 7.0

Query block: Tell me the measured Height of CC[C@@H](C(C)C)[C@@H](O)[C@H](O)[C@@H](C)[C@H]1CCC2C3COC(=O)C4C[C@H](O)[C@H](O)C[C@]4(C)C3CC[C@@]21C (stereo partly drawn) [BR2] , please.
Result block: 7.1

Query block: So what's the measured Height for this one? C=C(C(C)C)[C@@H](O)[C@H](O)[C@@H](C)[C@H]1CCC2C3COC(=O)C4C[C@H](O)[C@H](O)C[C@]4(C)C3CC[C@@]21C (stereo partly drawn) [BR3]
Result block: 7.1

Query block: # query: Height of entry CC(C)C[C@@H](O)[C@H](O)[C@@H](C)[C@H]1CCC2C3CC(=O)C4C[C@H](O)[C@H](O)C[C@]4(C)C3CC[C@@]21C (stereo partly drawn) [BR5]
Result block: 7.1

Query block: Which Height is listed for CC(C)[C@H](C)[C@@H](O)[C@H](O)[C@@H](C)[C@H]1CCC2C3COC(=O)C4C[C@H](O)[C@H](O)C[C@]4(C)C3CC[C@@]21C (stereo partly drawn) [BR1] ?
Result block: 6.9
